Test system: lacZ under control of the tetA promoter (PtetA) in E. coli KM3
Format: cell-based
Cond: Table 4; thifensulfuron 20 ppm; 48 hrs at 30° C.
If the reported relative β-galactosidase activity, inducer Ts equals or exceeds 0.3, assign rule met. If not, assign rule not met.

# example entries with known answers
Molecule: L1-38: SU-responsive TetR(B) variant, library L1 hit (protein, Sulfonylurea responsive repressor L1-38) MGSRLDKSKVINSALELLNEVGIEGLTTRKLAQKLGVEQPTLYWHVKNKRALLDALAIEMADRHHTHFCPLEGESWQDFLRNNAKSMRCALLSHRDGAKVWLGTAWTEKQYETTENMLAFLCQQGFSLENALYAWRAVTMFTLGCVLRDQEWQVAKEERETPTTDSMPPLLRQALELGDHQGAEPAFLFGLELIICGLEKQLKCESGS
Category label: rule met
//
Molecule: L1-28: SU-responsive TetR(B) variant, library L1 hit (protein, Sulfonylurea responsive repressor L1-28) MGSRLDKSKVINSALELLNEVGIEGLTTRKLAQKLGVEQPTLYWHVKNKRALLDALAIEMLDRHATHFCPLEGESWQDFLRNNAKSMRCALLSHRDGAKVWLGTAWTEKQYETPENVLAFLCQQGFSLENALYASRAVVTFTLGCVLTDQEKQVAKEERETPTTDSMPPLLRQAWELLDHQGAEPAFLFGLELIICGLEKQLKCESGS
Category label: rule not met
//
Molecule: L1-9: SU-responsive TetR(B) variant, library L1 hit (protein, Sulfonylurea responsive repressor L1-09) MGSRLDKSKVINSALELLNEVGIEGLTTRKLAQKLGVEQPTLYWHVKNKRALLDALAIEMLDRHATHFCPLEGESWQDFLRNNAKSMRCALLSHRDGAKVCLGTGFTEKQYETAENSLAFLCQQGFSLENALYAMQAVCIFTLGCVLLDQELQVAKEERETPTTDSMPPLLRQALELKDHQGAEPAFLFGLELIICGLEKQLKCESGS
Category label: rule met

In the following, a different molecule is considered.
## Task Does L1-29: SU-responsive TetR(B) variant, library L1 hit, SEQ ID NO: 10 (protein, Sulfonylurea responsive repressor L1-29) MGSRLDKSKVINSALELLNEVGIEGLTTRKLAQKLGVEQPTLYWHVKNKRALLDALAIEMMDRHQTHFCPLEGESWQDFLRNTAKSMRCALLSHRDGAKVWLGTRWTEKQYETPENMLAFLCQQGFSLENALYAWSAVCNFTLGCVLSDQERQVAKEERETPTTDSMPPLLRQAWELSDHQGAEPAFLFGLELIICGLEKQLKCESGS have a reported relative β-galactosidase activity, inducer Ts of at least 0.3?
## Result rule not met
